Test system: MDA-MB-468 breast
assay.remarks: NCI tumour cell line growth inhibition, 48 h
readout.label: TGI

* C/C(=N/NC(=S)Nc1ccccc1)c1nc2ccc(Cl)cc2[nH]1 | 0.776 µM
* O=C(Nc1n[nH]c2cc(-c3cc(F)ccc3F)ccc12)C1CC1 | > 25 µM

Request: Determine its reported TGI: COc1cc(C2CC(c3ccc(Nc4nc(NCCO)nc(NCCO)n4)cc3)=NN2c2cc(Cl)cc(Cl)c2)cc(OC)c1OC (stereo not drawn)
Result: 4.48 µM

Request: Report measured TGI; entry is NC(N)=N/N=C\c1ccc(OCc2ccccc2)cc1
Result: 2.64 µM

Request: Return the recorded TGI value; entry: Cn1c(I)c(C#C[Si](C)(C)C)c(=O)n(C(=O)c2ccccc2)c1=O
Result: 2.87 µM

Request: Give TGI for C/C(=C(/c1ccc(O)cc1)c1ccc(OCCN(C)C)cc1)c1ccc(Cl)cc1
Result: 31.9 µM

Request: Give the reported TGI for this molecule. COC1=CC(c2ccc[nH]2)=N/C1=C\c1[nH]c(C)c(C(=O)CCCCCCCCC(=O)O[C@H]2CC[C@H]3C4CCc5cc(O)ccc5C4CC[C@]23C)c1C (stereo partly drawn)
Result: > 50 µM

---

Test system: MDA-MB-468 breast
assay.remarks: NCI tumour cell line growth inhibition, 48 h; in the data active means GI50 below about 0.43 µM; inactive means the rest
A correct response names exactly one class from y (active), n (inactive)

Examples from the recorded data:
- O=C1C=CC(=O)c2c(O)c(N3CCN(CCO)CC3)c(Cl)c(O)c21: y
- CC1=NN(c2cccc(Cl)c2)C(=O)/C1=C\c1cn(CC(O)CN2CCCCC2)c2ccccc12 (stereo not given): n
- CCN(CC)C(=S)SSC(C)C: n
- C#C[C@]1(O)CC[C@H]2[C@@H]3CC=C4c5sc(Nc6ccc(Cl)cn6)nc5CC[C@]4(C)[C@H]3CC[C@@]21C: n
- CCOC(=O)Nc1ccc2nc(-c3cscn3)[nH]c2c1: n

Request: What outcome does the record of this test show for COc1ccc2[nH]c(C(=O)N3CCN(C(=O)OCc4ccc5c(Cl)cc(Cl)c(O)c5n4)CC3)cc2c1 ?
Result: n

Request: Can you look up the reported call for COc1ccc(-n2c(=S)sc3c(Cl)nc(C)nc32)c(OC)c1 for me?
Result: n

Request: Just curious, what result did Cc1cccc(N2C(=O)/C(=C/C(Cl)=C/c3ccc([N+](=O)[O-])cc3)SC2=S)c1C get here?
Result: n

Request: Hi team, can someone confirm the assay call for O=c1[nH]c(C2CCCN2)nc2c1oc1ccc(Cl)cc12 (stereo not given) ?
Result: n

Request: Name the outcome recorded for O=C(Nc1n[nH]c2cc(-c3cc(F)ccc3F)ccc12)C1CC1 in the assay.
Result: n

---

Tested on: MDA-MB-468 breast
assay.remarks: NCI tumour cell line growth inhibition, 48 h
List of TGI values.
Answer with a number only, understood to be in µM.

* O=C1C(=O)c2c(nc3ccc(C(F)(F)F)cn23)-c2ccccc21 | 0.56

Request: Assign TGI to the following record: COc1ccc2c(c1)C(=O)c1c-2c(OCCCN(C)C)nc2cc(Br)ccc12
Result: 18

Request: Give a short answer stating reported TGI for CCCCCCCC/C=C/CCCCCCCC1=NC(C)(C)CN1C(C)(C)CO .
Result: 3.23
